Tested on: MS2 coat protein
TEST_DETAILS: apparent Kd, MS2 coat protein; higher = weaker binding; RNA-MaP array; FMN 200 µM where present
CONDITION_LABEL: designed as: OFF switch for flavin mononucleotide; no ligand
Note to self: class labels come from recorded apparent Kd, ranges listed here: group A (below 20 nM), group B (20 nM to below 40 nM), group C (40 nM or more)

>>> df
                              sequence_input  answer_label
 0  GGAUGUCAAAGACAUCCAAUACGAACAUGAGGAUCACCCAUGUAGGAUAUGCUACUCAAAGAGUAGCAGAAGGACAUGUGCCUU       group B
 1  GUGCUUGUCGGAGGAUAUGGUUACAUGAGGAUCACCCAUGUUAUGCUUGGUUACUUGUUUAGUUUCCAGAAGGUCGAUUGGUUG       group C
 2  GUGUAGAUAGGAUAUACAUGAGUCUAGCGAAGCUAGAUUCUACAUGAGGAUCACCCAUGUAGAAGGGUCUACAC       group A
 3  AAAACAGUGUAGGAUAUGGCUGGGCUGAAAAUGCUAGAAGGACACACAUGAGGAUCACCCAUGUGACUUCGUGC       group A
 4  GUCAGCUCGUGAGGAUAUACAUGUGCUGGAAACAGCACUAAAGUUUUCACAUGAGGAUCACCCAUGUAGAAGGCACGAGCUGAU       group A
 5  GCUUCCCAUGUGAGGAUAUGUAGGGUUAACCCGAGGCAGAAGGCACAUGAGGAUCACCCAUGUUAAAACUUCUA       group B
 6  CUAUUUAGUGCCUCAUGUACAUGAGGAUCACCCAUGUUAACUUAGGAUAUAUUUAUAUUGAUAGAGUAGAAGGAAGUACUAUUU       group B
 7  UGACCCAUGACAUGAGAUGACAUGAGGAUCACCCAUGUUUACAAGGAUAUGUUGAUGAAACAUCAACAGAAGGUGUAAUGGGCU       group B
 8  CCUUUCCGAGGAUAUACAUGAGGAUCACCCAUGUGAUCCUAAGGCUGAUCAAGCCUAUGUAGAAGGCGCAAAUC       group C
 9  UAUUAACACGAAGGAUAUGGUUACAUGAGGAUCACCCAUGUAUGUAUAUUGAUCUAGAUUUUUGACCAGAAGGUCGUGAGUAAA       group B
10  GGAUGACAAAGUCAUCCAAUACGAACAUGAGGAUCACCCAUGUAGGAUAUGCAACUCAAAGAGUUGCAGAAGGACAUGUGUCUU       group B
11  GUGGCUAGUACAGGAUAUUAGUGCGUGUAGUAUUGAGAAGGGUACAUGAGGAUCACCCAUGUGAUCAAUCACUGUUAAGGUCGC       group C
12  AAAUAGAAUGAGGAUAUCGUACUGGAUAUAGUGCGAGAAGGCAUUACAUGAGGAUCACCCAUGUUUUGUUGGGA       group B
